Data origin: patent US20210388087A1

- assayed.target: Human CD137 ECD (human)
- Sequence (chain, as listed by the source limits assumed): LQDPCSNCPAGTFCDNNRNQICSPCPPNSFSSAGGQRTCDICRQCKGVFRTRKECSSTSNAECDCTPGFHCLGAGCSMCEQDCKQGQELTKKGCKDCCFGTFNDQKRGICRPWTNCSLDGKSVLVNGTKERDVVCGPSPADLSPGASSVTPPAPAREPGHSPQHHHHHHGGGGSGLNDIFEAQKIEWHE
- method.summary: SPR, vs parent H183/L072
Please go through the items and note down their fold change of affinity.
Quick note: give the figure in fold, leave out the unit.

Dear colleague, I am looking for the recorded fold change of affinity of the following binder: dBBDu183H S100aV / dBBDu072L (antibody, name in Kabat numbering, V domains shown) VH: QVQLVESGGGLVQPGRSLRLSCAASGFTFSNAWMHWVRQAPGKGLEWVAQIKDKGNAYAAYYAPSVKGRFTISRDDSKNSIYLQMNSLKTEDTAVYYCHYVHYASAVTVLPAFGVDAWGQGTTVTVSS VL: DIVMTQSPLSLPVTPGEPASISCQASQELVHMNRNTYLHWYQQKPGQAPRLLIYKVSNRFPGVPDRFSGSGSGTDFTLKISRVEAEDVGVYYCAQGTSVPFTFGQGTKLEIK
0

What does the data say about its fold change of affinity? Entry: dBBDu183H D101R / dBBDu072L (antibody, name in Kabat numbering, V domains shown) VH: QVQLVESGGGLVQPGRSLRLSCAASGFTFSNAWMHWVRQAPGKGLEWVAQIKDKGNAYAAYYAPSVKGRFTISRDDSKNSIYLQMNSLKTEDTAVYYCHYVHYASASTVLPAFGVRAWGQGTTVTVSS VL: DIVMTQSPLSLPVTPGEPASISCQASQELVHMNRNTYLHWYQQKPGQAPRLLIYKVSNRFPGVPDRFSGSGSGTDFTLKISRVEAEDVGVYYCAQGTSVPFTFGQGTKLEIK
0
